These measurements were taken from patent US10786508B2.

Target: glucocerebrosidase (Gcase) (Homo sapiens, UniProt P04062)
Construct: micellar solution containing 10 nM GCase and 100 nM saposin C
Sequence (P04062 40-536): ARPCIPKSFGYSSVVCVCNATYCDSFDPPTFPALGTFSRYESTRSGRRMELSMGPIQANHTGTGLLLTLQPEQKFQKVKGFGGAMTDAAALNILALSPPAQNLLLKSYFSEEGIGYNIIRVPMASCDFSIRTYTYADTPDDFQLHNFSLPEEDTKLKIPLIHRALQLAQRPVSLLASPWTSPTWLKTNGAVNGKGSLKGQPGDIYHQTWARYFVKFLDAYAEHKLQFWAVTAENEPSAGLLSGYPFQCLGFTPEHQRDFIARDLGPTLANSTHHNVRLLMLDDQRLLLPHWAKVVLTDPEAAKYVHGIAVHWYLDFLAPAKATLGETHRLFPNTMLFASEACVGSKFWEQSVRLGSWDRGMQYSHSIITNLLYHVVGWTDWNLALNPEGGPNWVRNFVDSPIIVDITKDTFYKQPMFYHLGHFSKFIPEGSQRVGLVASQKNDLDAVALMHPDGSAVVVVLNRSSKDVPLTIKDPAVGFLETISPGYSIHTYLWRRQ
Assay: Glucocerebrosidase (Gcase) activation assay, 4-methylumbelliferyl-beta-D-glucopyranoside substrate, with saposin C
Assay type: biochemical
Settings: 1 μM test compound; 10 nM GCase, 100 nM saposin C, pH 4.7; read-out: Percent Gease Activation 1 μM Test Compound
endpoint: activation at 1 µM

compound	reported.measurement
CCCCCOc1ccc(NC(=O)c2ncn3c(C)cc(C)nc23)cc1	> 60%
CO[C@H]1CC[C@H](C(C)(C)NC(=O)c2ncn3c(C)cc(C)nc23)CC1	< 30%
C#Cc1ccc(NC(=O)c2ncn3c(C)cc(C)nc23)cc1F	> 60%
Cc1cc(C)n2cnc(C(=O)Nc3ccc4oc(-c5ccncc5)nc4c3)c2n1	30 to 60%
CCCCCO[C@H]1CC[C@H](NC(=O)c2ncn3c(C)cc(C)nc23)CC1	30 to 60%
Cc1cc(C)n2cnc(C(=O)Nc3ccc(C)c(-c4ncco4)c3)c2n1	> 60%
CCCCO[C@@H]1[C@@H]2CC[C@H]1C[C@@H](NC(=O)c1ncn3c(C)cc(C)nc13)C2	> 60%
CCCOc1cccc(C(C)(C)NC(=O)c2ncn3c(COC)cc(COC)nc23)c1	> 60%
Cc1cc(C)n2cnc(C(=O)Nc3ccc(-c4cocn4)cc3)c2n1	30 to 60%
CO[C@H]1CC[C@@H](C(C)(C)NC(=O)c2ncn3c(C)cc(C)nc23)CC1	30 to 60%
CCCCO[C@H]1C[C@H]2CC[C@@H](C1)[C@H]2NC(=O)c1ncn2c(C)cc(C)nc12	> 60%
COCc1cc(C2CC2)nc2c(C(=O)NC(C)(C)c3cccc(OC4CC4)c3)ncn12	> 60%
Cc1cc(C)n2cnc(C(=O)NC3CCc4ccccc4C3)c2n1 (stereo not shown)	30 to 60%
Cc1cc(C)n2cnc(C(=O)Nc3ccc4c(C)cc(=O)oc4c3)c2n1	< 30%
CCC(NC(=O)c1ncn2c(C)cc(C)nc12)c1cccc(Cl)c1 (stereo not shown)	> 60%
Cc1cc(C(F)(F)F)nc2c(C(=O)NC3(C)CCCc4ccccc43)ncn12 (stereo not shown)	< 30%
CCOc1ccc(C(C)NC(=O)c2ncn3c(C)cc(C)nc23)cc1 (stereo not shown)	< 30%
C#Cc1ccc(NC(=O)c2ncn3c(C)cc(C)nc23)c(F)c1	> 60%
[2H]C1(NC(=O)c2ncn3c(C)cc(C)nc23)CCCCc2ccccc21 (stereo not shown)	> 60%

###

Assay: Compound solubility in water
Type: physicochemical
# maps each entry to its solubility
endpoint: solubility

compound	endpoint	reported.measurement
Cc1cc(C)n2cnc(C(=O)Nc3ccc(-c4cocn4)cc3)c2n1 [III-3]	solubility	4.8 µg/mL
Cc1cc(C)n2cnc(C(=O)Nc3ccc4c(=O)cc(C)oc4c3)c2n1 [III-17]	solubility	0.4 µg/mL
CCCOc1cccc(C(C)(C)NC(=O)c2ncn3c(COC)cc(C4CC4)nc23)c1 [III-51]	solubility	10.5 µg/mL
Cc1cc(C)n2cnc(C(=O)Nc3ccc(-c4cscn4)cc3)c2n1 [III-64]	solubility	0.6 µg/mL
Cc1cc(C)n2cnc(C(=O)Nc3ccc4[nH]c(-c5ccco5)nc4c3)c2n1 [III-20]	solubility	0.3 µg/mL
Cc1cc(C)n2cnc(C(=O)Nc3ccc4[nH]ncc4c3)c2n1 [III-8]	solubility	0.4 µg/mL
CO[C@H]1CC[C@@H](C(C)(C)NC(=O)c2ncn3c(C)cc(C)nc23)CC1 [III-63]	solubility	36.2 µg/mL
Cc1cc(C)n2cnc(C(=O)NC3CCCc4ccccc43)c2n1 (stereo not drawn) [III-71]	solubility	70.7 µg/mL
Cc1cc(C)n2cnc(C(=O)Nc3ccc(-c4ccco4)nc3)c2n1 [III-66]	solubility	< 0.01 µg/mL
